{"compound": "Cc1nnc2ncc(-c3cccc(C(F)(F)F)c3)nn12", "melting point": "265 to 268 °C"}
{"compound": "CC(C)c1nn(-c2ccccc2)c(-c2ccc(F)cc2)c1CCC=O", "melting point": "86 to 88 °C"}
{"compound": "O=[N+]([O-])c1cc(Cl)c(Cl)cc1O", "melting point": "63 to 65 °C"}
{"compound": "O=C1CCC(c2ccc3[nH]c(-c4ccccc4Cl)cc3c2)=NN1", "melting point": "236 to 239 °C"}
{"compound": "CCC1CC(=O)c2cc(C(C)C(N)=O)ccc2O1 (stereo not given)", "melting point": "148 to 150 °C"}

###

{"compound": "COc1ccc(C2=NN(C3CCSCC3)C(=O)[C@H]3CC=CC[C@@H]23)c2c1OC(C)(C)C2 (relative stereo)", "melting point": "163 to 164 °C"}
{"compound": "Cc1ccc(Oc2ccncc2[N+](=O)[O-])cn1", "melting point": "87 to 90 °C"}
{"compound": "CC(=O)NC[C@H]1CN(c2ccc(N3CCC4(CC3)NCCO4)c(F)c2)C(=O)O1", "melting point": "138 to 140 °C"}
{"compound": "N#Cc1cc2c(-c3cccc(NC(=O)c4cccc(C(F)(F)F)c4)c3)ncnc2s1", "melting point": "210 to 212 °C"}
{"compound": "O=C1OC(OC(=O)c2cccnc2Nc2cccc(C(F)(F)F)c2)c2ccccc21 (stereo unspecified)", "melting point": "159 to 162 °C"}
{"compound": "CCOC(=O)c1cn2c(C)nnc2cc1Nc1ccc(I)cc1F", "melting point": "201 to 204 °C"}

###

measured-property: melting point

{"compound": "CC(=O)O[C@H]1CC[C@H](c2ccc(CCl)cc2)CC1", "measured-property": "melting point", "result": "87 to 89 °C"}
{"compound": "CN(C)c1nc2n(n1)CCc1ccccc1-2", "measured-property": "melting point", "result": "66 to 68 °C"}
{"compound": "CCOC(=O)COc1cc(O)c(C(=O)CN2Cc3cc(C(N)=S)ccc3C2=O)cc1OCC(=O)OCC", "measured-property": "melting point", "result": "142 to 143 °C"}
{"compound": "COc1ccc(CCC2CN(C3=Nc4cc(F)ccc4Nc4sc(C)cc43)CCN2C)cc1 (stereo unspecified)", "measured-property": "melting point", "result": "180 to 182 °C"}
{"compound": "Cn1cc(C#N)c(-c2ccco2)n1", "measured-property": "melting point", "result": "104 to 106 °C"}
{"compound": "CCCCCCCCCCCCCCC[C@@H](O)C(Cl)C(=O)OC (stereo partly specified)", "measured-property": "melting point", "result": "39 to 40 °C"}
{"compound": "CC1C(Cl)(Cl)C1(C)C(=O)C(N)=O (stereo unspecified)", "measured-property": "melting point", "result": "87 to 89 °C"}
{"compound": "OCc1nc(-c2ccc3c(c2)Nc2ccccc2S3)cs1", "measured-property": "melting point", "result": "120 to 122 °C"}
{"compound": "O=C(COc1ccon1)NCCO[N+](=O)[O-]", "measured-property": "melting point", "result": "67 to 69 °C"}
{"compound": "CS(=O)(=O)NCc1cc(Br)cc2[nH]c(=O)c(=O)[nH]c12", "measured-property": "melting point", "result": "> 300 °C"}
{"compound": "CCCCCCCCCc1ccc(-c2ccc(OCC(OC3CCCCO3)C(F)(F)F)nn2)cc1 (stereo unspecified)", "measured-property": "melting point", "result": "96.1 °C"}
{"compound": "Clc1ccc2c(c1)N(CC1CN3CCC1CC3)c1ccccc1S2 (stereo unspecified)", "measured-property": "melting point", "result": "122 °C"}
{"compound": "COc1ccc(-c2nn(C(C)c3oc4ccccc4c(=O)c3-c3cccc(F)c3)c3ncnc(N)c23)cc1OC (stereo unspecified)", "measured-property": "melting point", "result": "232 to 235 °C"}
{"compound": "CC(C)(C)OC(=O)N1CCN(C(=O)Oc2ccc(Oc3ccc(C(F)(F)F)cn3)cc2)CC1", "measured-property": "melting point", "result": "165 to 166 °C"}
{"compound": "CCOC(C#N)c1ccc2ccccc2c1 (stereo unspecified)", "measured-property": "melting point", "result": "53 to 54 °C"}
{"compound": "CCN(CC)C(=O)OC12Oc3cc(C(C)C)ccc3C1(O)C(=O)c1ccccc12 (stereo unspecified)", "measured-property": "melting point", "result": "127 to 130 °C"}
{"compound": "Cc1cccc(NC(=O)NC2N=C(C3CCCC3)c3ccccc3N(CC(=O)N3CC4CCC(CC4)C3)C2=O)c1 (racemic)", "measured-property": "melting point", "result": "132 to 134 °C"}
{"compound": "COc1ccc(NC(=O)c2ccc(-c3ccc(-c4noc(CO)n4)cc3C)cc2)cc1N1CCN(C)CC1", "measured-property": "melting point", "result": "175 to 178 °C"}
{"compound": "COCCNC(=O)c1cccc(-c2cccc3c2nc(Oc2ccc(Cl)c(F)c2)n3C)c1", "measured-property": "melting point", "result": "150 to 151 °C"}
{"compound": "Cc1c(C(=O)N2Cc3ccccc3Cc3ccccc32)csc1C(N)=O", "measured-property": "melting point", "result": "201 to 204 °C"}
{"compound": "CC(=O)OCC(=O)NNC(=O)c1ccc2occ(-c3cccc(OC(F)(F)F)c3)c2c1", "measured-property": "melting point", "result": "161 to 162 °C"}

###

{"molecule": "CCOC(=O)C1=C(c2ccc(-n3c(C)nc4cnccc43)nc2)NC(C)=C(C(=O)Nc2ccccn2)C1c1ccccc1Cl (stereo unspecified)", "melting point": "242 to 243 °C"}
{"molecule": "CC(C)(C)OC(=O)c1ncn2c1[C@@H]1CCN1C(=O)c1ccccc1-2", "melting point": "185 to 187 °C"}
{"molecule": "CCOC(=O)c1cn(N2CCOCC2)c2ccc(CN3CCOCC3)cc2c1=O", "melting point": "209 to 211 °C"}
{"molecule": "Nc1nc2c(cnn2CCc2ccccc2)c2nc(-c3ccco3)nn12", "melting point": "225 to 226 °C"}
{"molecule": "CC(C)CCNC(=O)c1c(N)cc(Cl)cc1Cl", "melting point": "148 to 150 °C"}
{"molecule": "CN1[C@@H]2CC[C@H]1[C@H](CO)[C@H](c1ccc(Cl)c(Cl)c1)C2", "melting point": "81 to 86 °C"}
{"molecule": "CN(C)C1CCC2c3ccccc3Sc3ccc(C(F)(F)F)cc3N2C1 (stereo unspecified)", "melting point": "118 to 122 °C"}
{"molecule": "Cc1nc(-c2ccccc2)nc(-c2cccc([N+](=O)[O-])c2)c1CNC(N)=S", "melting point": "227 to 229 °C"}
{"molecule": "COc1ccc(CN(C)CCCSc2ccc(NC(=O)c3cccc4c(=O)c5cccc(SC)c5[nH]c34)cc2)cc1OC", "melting point": "142 °C"}
{"molecule": "N#Cc1nn(-c2c(Cl)cc(C(F)(F)F)cc2Cl)c(N2CCOCC2)c1S(=O)(=O)C(F)(F)F", "melting point": "167 to 169 °C"}
{"molecule": "Cc1ccccc1Nc1cccc(-c2ccccc2)c1CN", "melting point": "103 to 105 °C"}
{"molecule": "COc1cc(C)cc(-c2nn(CC#N)cc2-c2ccnc(S(C)(=O)=O)n2)c1", "melting point": "238 °C"}
{"molecule": "O=c1[nH]c(=O)n(CCCCBr)c2cc([N+](=O)[O-])ccc12", "melting point": "202 to 203 °C"}
{"molecule": "COc1ccc(-c2cc(-c3ccc(-c4c(Cc5ccccc5)oc5ccccc45)cc3)ccc2OC(Cc2ccccc2)C(=O)O)cc1 (stereo unspecified)", "melting point": "73 to 75 °C"}
{"molecule": "COc1cc2ncnc(N3CCC(C(C)=O)CC3)c2cc1OC", "melting point": "116 to 117 °C"}
{"molecule": "CCCCCC(=O)c1cn(S(=O)(=O)c2ccc(C)cc2)c2ccccc12", "melting point": "91 to 93 °C"}
{"molecule": "NC(=O)NN=Cc1c2ccccc2c(C=NNC(N)=O)c2ccccc12", "melting point": "300 °C"}
{"molecule": "COc1cccc(CO)c1C(O)c1ccccn1 (stereo unspecified)", "melting point": "102 to 104 °C"}
{"molecule": "O=C(Nc1ccc(Oc2ccnc(NCCN3CCCCC3)n2)c2ccccc12)c1cc(F)cc(N2CCCCC2)c1", "melting point": "88 to 89 °C"}
{"molecule": "O=C(O)COc1ccc2cc(-c3sc4ccccc4c3C(=O)Cc3ccccc3)ccc2c1Br", "melting point": "170 to 172 °C"}
{"molecule": "Cc1ccc(S(=O)(=O)N2CCC[C@H]2C(=O)N[C@@H](Cc2ccc(OCCN3CCOCC3)cc2)C(=O)O)cc1", "melting point": "99 to 101 °C"}
{"molecule": "CCOC(=O)C1=C(C(F)(F)F)COc2ccc3ccccc3c21", "melting point": "246 to 249 °C"}
{"molecule": "CCn1c(=O)c2c(nc(/C=C/c3cccc(OC)c3OC)n2C)n(CC)c1=O", "melting point": "195 to 196 °C"}
{"molecule": "CC(=O)Oc1ccc(CC(=O)Nc2cccc(/C=C/c3nc(C4CCC4)cs3)c2)c(C(=O)O)c1", "melting point": "176 to 179 °C"}
{"molecule": "O=C(O)COc1ccc(SSc2ccc(OCC(=O)O)c(Br)c2)cc1Br", "melting point": "146 to 150 °C"}
{"molecule": "COC(=O)C(Br)c1ccc(OCCCOc2ccc(Cl)cc2)cc1 (stereo unspecified)", "melting point": "49 to 53 °C"}
